Molecular target: Fibroblast growth factor receptor 3 (Homo sapiens) (UniProt P22607);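 also: each value is a mean percent inhibition of FGFR3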
Sequence (P22607 23-806 limits assumed): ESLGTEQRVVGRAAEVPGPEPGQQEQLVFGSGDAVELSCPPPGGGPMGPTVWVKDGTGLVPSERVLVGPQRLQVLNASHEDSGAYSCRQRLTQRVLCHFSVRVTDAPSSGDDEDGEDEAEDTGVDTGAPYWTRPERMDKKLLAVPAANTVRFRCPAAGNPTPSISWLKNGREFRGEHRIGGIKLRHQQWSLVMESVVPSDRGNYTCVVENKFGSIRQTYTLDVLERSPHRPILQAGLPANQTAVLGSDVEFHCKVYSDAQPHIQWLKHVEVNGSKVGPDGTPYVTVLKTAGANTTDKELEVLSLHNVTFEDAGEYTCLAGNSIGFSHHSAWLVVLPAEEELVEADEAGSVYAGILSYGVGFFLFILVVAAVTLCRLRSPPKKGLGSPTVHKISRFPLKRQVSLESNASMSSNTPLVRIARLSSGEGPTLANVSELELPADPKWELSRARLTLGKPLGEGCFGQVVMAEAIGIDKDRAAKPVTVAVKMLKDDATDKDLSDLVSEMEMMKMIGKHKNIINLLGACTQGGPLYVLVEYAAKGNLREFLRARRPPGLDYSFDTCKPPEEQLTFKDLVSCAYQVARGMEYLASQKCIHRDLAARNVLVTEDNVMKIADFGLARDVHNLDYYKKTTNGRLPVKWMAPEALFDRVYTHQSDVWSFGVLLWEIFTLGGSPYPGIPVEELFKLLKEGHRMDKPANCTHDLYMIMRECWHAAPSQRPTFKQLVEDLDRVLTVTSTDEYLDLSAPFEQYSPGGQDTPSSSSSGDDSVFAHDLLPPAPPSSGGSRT
Conditions: at 0.1 µM
readout.type: inhibition (%)
Provide the reading as a plain figure in %.

The cases that follow already have their inhibition on record.
Cc1cccc(Nc2ncc(-c3ccccc3)o2)c1; 6.68
Cc1ccc(O)cc1Nc1ccnc2cc(-c3ccccn3)ccc12; 8.93
CC(C)COC(=O)c1ccc2c(c1)/C(=C/Nc1ccc(S(N)(=O)=O)cc1)C(=O)N2; 0.1
c1cc(-c2cnn3nc(N4CCOCC4)ccc23)nc(NC2CC2)n1; 6.59
Fc1ccc(-c2cc(-c3c[nH]nc3-c3ccccn3)ccn2)cc1; 4.33
NS(=O)(=O)c1ccc(N/N=C2\C(=O)Nc3ccc4ncccc4c32)cc1; 26.1
CCOc1ccc2c(-c3ccnc(Nc4cccc(C(F)(F)F)c4)n3)cnn2n1; 2.18
CNC(=O)c1cc(-c2ccc(F)cc2)cc(-c2ccc(S(=O)(=O)N3CCCC3)cc2)c1N; 4.56

Looking up `CNC(=O)c1cncc(/C=C/c2ccccc2Cl)c1` , I found its inhibition recorded as 0.84

get_value(item= `COc1ccc(-c2cc3c(N)ncnc3o2)cc1` , readout=inhibition) returns -0.11

Value of measured inhibition for the entry `N#Cc1c(NC(=O)CN2CCOCC2)sc2c1CCCC2` : 3.63

* * *

Biological target: Tyrosine-protein kinase receptor UFO (Homo sapiens) (UniProt P30530)
Sequence (P30530 whole entry): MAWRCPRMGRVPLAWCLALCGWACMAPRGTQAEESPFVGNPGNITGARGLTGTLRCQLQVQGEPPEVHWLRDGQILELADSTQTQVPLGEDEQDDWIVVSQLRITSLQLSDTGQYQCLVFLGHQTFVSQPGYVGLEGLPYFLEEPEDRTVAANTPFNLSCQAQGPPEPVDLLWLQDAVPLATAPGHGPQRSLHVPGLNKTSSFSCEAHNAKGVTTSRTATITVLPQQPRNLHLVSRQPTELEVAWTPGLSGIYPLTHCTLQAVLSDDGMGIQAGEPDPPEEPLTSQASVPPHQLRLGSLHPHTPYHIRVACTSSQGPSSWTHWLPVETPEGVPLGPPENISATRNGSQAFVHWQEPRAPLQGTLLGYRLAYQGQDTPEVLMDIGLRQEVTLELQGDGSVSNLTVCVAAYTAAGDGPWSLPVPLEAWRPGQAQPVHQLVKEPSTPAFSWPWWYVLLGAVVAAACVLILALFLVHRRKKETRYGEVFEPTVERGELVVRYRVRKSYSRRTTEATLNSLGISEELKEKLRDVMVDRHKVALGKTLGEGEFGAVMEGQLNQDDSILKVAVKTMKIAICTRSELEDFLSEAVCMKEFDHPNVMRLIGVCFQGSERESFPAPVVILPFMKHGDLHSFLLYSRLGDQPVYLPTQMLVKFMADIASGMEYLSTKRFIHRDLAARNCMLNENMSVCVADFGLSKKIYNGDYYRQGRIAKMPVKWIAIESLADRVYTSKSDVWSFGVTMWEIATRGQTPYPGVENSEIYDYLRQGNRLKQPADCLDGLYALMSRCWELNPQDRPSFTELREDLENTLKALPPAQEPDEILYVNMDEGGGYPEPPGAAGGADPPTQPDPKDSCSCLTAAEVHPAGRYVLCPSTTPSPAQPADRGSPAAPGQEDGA
Conditions: at 1 µM
Description: GSK_PKIS: AXL mean inhibition at 1 uM [Nanosyn]
Items are presented alongside their recorded inhibition.

Some solved entries appear below for comparison.
NC(=O)c1sc(-n2cnc3ccc(C(F)(F)F)cc32)cc1OCc1ccccc1Br; -3.8%
CCN(CC)S(=O)(=O)c1ccc(OC)c(Nc2ncc(-c3ccccc3)o2)c1; -0.53%
N#Cc1c(NC(=O)c2ccc(F)cc2)sc2c1CCCC2; -1.26%

Now consider a different compound.
Reported inhibition (Tyrosine-protein kinase receptor UFO (Homo sapiens) (UniProt P30530)) for entry `CNC(=O)c1cc(-c2ccc(F)cc2)cc(-c2ccc(S(=O)(=O)N3CCCC3)cc2)c1N` is -4.04%

* * *

Biological target: cGMP-dependent protein kinase 2 (Homo sapiens);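 also: reported figure is a mean inhibition value against PRKG2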
Conditions: at 0.1 µM
readout.type: inhibition

Answered examples (5):
Fc1ccc(-c2cc(-c3c[nH]nc3-c3ccccn3)ccn2)cc1; 1.37%
FC(F)(F)c1cccc(-c2nn3ncccc3c2-c2ccnc(Nc3ccc4c(c3)OCCO4)n2)c1; 0.46%
CC1=C(C(=O)Nc2cc(Cl)c3[nH]ncc3c2)C(c2ccc(C(F)(F)F)cc2)CC(=O)N1 (stereo not given); 16.9%
COc1ccc(-c2cc3c(N)ncnc3o2)cc1; -1.2%
Clc1ccc(-c2nn3ncccc3c2-c2ccnc(Nc3ccccc3)n2)cc1; 1.46%

Noted inhibition for `c1ccc(-c2nc3n(c2-c2ccc4c(c2)OCO4)CCC3)nc1` , tested on cGMP-dependent protein kinase 2 (Homo sapiens): 1.67%

Tested system cGMP-dependent protein kinase 2 (Homo sapiens); inhibition recorded for `COC(=O)Nc1nc2ccc(S(=O)(=O)c3ccc(NC(=O)Nc4cc(C(F)(F)F)ccc4F)cc3)cc2[nH]1` was 2.34%

* * *

Target: Serine/threonine-protein kinase B-raf (Homo sapiens);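 also: mean percent inhibition of BRAF kinase activity, from the GSK PKIS kinase inhibitor screening set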
Conditions: at 0.1 µM
readout.type: inhibition (%)
Your answer is read as %, so omit the unit and give the number.

These solved cases illustrate the format of a correct answer.
CNC(=O)c1cc(-c2ccc(F)cc2)cc(-c2ccc(S(=O)(=O)N3CCCC3)cc2)c1N; 3.72
CCn1c(-c2nonc2N)nc2c(C#CC(C)(C)O)nc(OC[C@H](N)c3ccccc3)cc21; 1.18

Record summary for `CS(=O)(=O)CCNCc1ccc(-c2ccc3ncnc(Nc4ccc(OCc5ccccc5)c(C(F)(F)F)c4)c3c2)o1` : reported inhibition = 5.9

Form: compound = `CN1CCC(n2cnc(-c3ccc(F)cc3)c2-c2ccnc(Nc3ccccc3)n2)CC1` ; inhibition = 3.78

Entry `COc1ccc2c(-c3ccnc(Nc4cccc(OC(F)(F)F)c4)n3)cnn2n1` — recorded inhibition = 6.94

For this compound ( `CCNC(=O)O[C@H]1CN[C@H](C#Cc2cc3ncnc(Nc4ccc(OCc5cccc(F)c5)c(Cl)c4)c3s2)C1` ), measured inhibition is 4.28

response.value for `c1cc(-c2cnn3nc(N4CCOCC4)ccc23)nc(NC2CC2)n1` (field: inhibition) = 6.23

* * *

Biological target: MAP kinase-activated protein kinase 3 (Homo sapiens) (UniProt Q16644)
Sequence (Q16644 whole entry, looked up): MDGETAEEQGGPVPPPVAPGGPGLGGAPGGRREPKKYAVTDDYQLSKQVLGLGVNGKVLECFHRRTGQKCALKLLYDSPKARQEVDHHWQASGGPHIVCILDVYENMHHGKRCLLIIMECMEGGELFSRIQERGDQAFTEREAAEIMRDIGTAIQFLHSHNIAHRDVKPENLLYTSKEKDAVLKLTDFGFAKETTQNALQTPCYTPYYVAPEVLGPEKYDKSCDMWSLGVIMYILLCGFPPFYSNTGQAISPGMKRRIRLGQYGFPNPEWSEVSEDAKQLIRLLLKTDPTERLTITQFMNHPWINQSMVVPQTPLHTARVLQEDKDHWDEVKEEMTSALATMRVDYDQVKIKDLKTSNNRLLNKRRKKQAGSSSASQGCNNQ
Conditions: at 1 µM
Description: GSK_PKIS: MAPKAPK3 mean inhibition at 1 uM [Nanosyn]
Listing of entries alongside the reported inhibition.
In your response, put the unit directly after the numeric value.

O=C(Nc1n[nH]c2cc(-c3ccc(F)cc3)ccc12)C1CC1; 8.99%
CNC(=O)c1cncc(/C=C/c2ccccc2Cl)c1; -0.89%

Recorded inhibition (compound `CC(C)COC(=O)c1ccc2c(c1)/C(=C/Nc1ccc(S(N)(=O)=O)cc1)C(=O)N2` ): -2.61%

Measured inhibition of `O=S(=O)(CCNCc1ccc(-c2ccc3ncnc(Nc4ccc(OCc5cccc(F)c5)c(Cl)c4)c3c2)o1)c1ccccc1` : 7.76%

So for `[O-][S+]1CCN(Cc2ccc(-c3ccc4ncnc(Nc5ccc(OCc6cccc(F)c6)c(Cl)c5)c4c3)o2)CC1` , the logged inhibition turned out to be 7.37%

inhibition measured on `Cc1ccc(O)cc1Nc1ccnc2cc(-c3ccccn3)ccc12` = 19.4%

The value of inhibition measured for the compound `c1ccc(-c2nc3n(c2-c2ccc4c(c2)OCO4)CCC3)nc1` turned out to be 3.33%

* * *

Target: Sphingosine kinase 1 (Homo sapiens) (UniProt Q9NYA1);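 also: mean percent inhibition of SPHK1 activity, measured within the GSK PKIS screening panel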
Sequence (Q9NYA1 whole entry): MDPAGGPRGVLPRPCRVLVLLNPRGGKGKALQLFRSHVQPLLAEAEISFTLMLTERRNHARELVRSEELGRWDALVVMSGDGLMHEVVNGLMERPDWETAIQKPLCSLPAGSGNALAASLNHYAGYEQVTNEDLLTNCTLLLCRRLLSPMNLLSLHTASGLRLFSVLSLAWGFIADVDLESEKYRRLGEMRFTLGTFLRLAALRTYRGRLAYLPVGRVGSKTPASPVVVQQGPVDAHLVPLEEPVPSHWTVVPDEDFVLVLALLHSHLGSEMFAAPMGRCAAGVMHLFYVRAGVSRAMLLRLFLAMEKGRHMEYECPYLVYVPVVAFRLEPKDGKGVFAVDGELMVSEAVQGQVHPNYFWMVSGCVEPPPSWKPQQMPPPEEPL
Settings: at 0.1 µM
readout.type: inhibition (%)
Express it in %; write the number only.

Some solved cases for reference:
O=C(Nc1n[nH]c2cc(-c3ccc(F)cc3)ccc12)C1CC1; 2.17
Fc1cccc(COc2ccc(Nc3ncnc4sc(-c5ccco5)cc34)cc2Cl)c1; 0
FC(F)(F)c1cccc(-c2nn3ncccc3c2-c2ccnc(Nc3ccc4c(c3)OCCO4)n2)c1; -1.16
Fc1ccc(-c2nn3ccccc3c2-c2ccncc2)cc1; -0.49

// switching to the query molecule
Item: `CCN1CCC(CC(=O)Nc2n[nH]c3nnc(-c4cccc(F)c4F)cc23)CC1` | inhibition: 0.09

* * *

Reported inhibition values follow for various compounds
Target: Cyclin-dependent kinase 2 (Homo sapiens) (UniProt P24941);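 also: mean inhibition of the CDK2–cyclin A kinase complex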
Conditions: at 1 µM
Write the numeric value and follow it with the unit.

Recorded result, `CCn1c(-c2nonc2N)nc2cnc(Oc3cccc(NC(=O)c4ccc(N(C)C)cc4)c3)cc21` , inhibition: 8.52%

According to the records, this compound `COc1ccc(-c2nn3ncccc3c2-c2ccnc(Nc3ccc4c(c3)OCCO4)n2)cc1` displays inhibition of 0.43%

So for `CC(=O)Nc1cccc(C#Cc2cncnc2Nc2ccc(OCc3cccc(F)c3)c(Cl)c2)c1` , the logged inhibition turned out to be 1.81%

inhibition recorded for this compound, `CS(=O)(=O)CCNCc1ccc(-c2ccc3ncnc(Nc4ccc(OCc5ccccc5)c(C(F)(F)F)c4)c3c2)o1` , is 8.37%

* * *

Target: Tyrosine-protein kinase SYK (Homo sapiens) (UniProt P43405);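 also: reported percentages are mean inhibition values for SYK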
Details: at 0.1 µM
Overview of reported inhibition across a group of compounds:
Number in %, nothing else.

Example entries begin here.
CNC(=O)c1cncc(/C=C/c2ccccc2Cl)c1; 7.26
COc1ccc2[nH]c3c4[nH]c5ccc(OC)cc5c4c4c(c3c2c1)C(=O)NC4=O; -7.81
CCn1c(-c2nonc2N)nc2cnc(Oc3cccc(NC(=O)c4ccc(N(C)C)cc4)c3)cc21; -1.42
O=C(Nc1n[nH]c2cc(-c3ccc(F)cc3)ccc12)C1CC1; -3.9
CCc1nn2ncccc2c1-c1ccnc(NC2CC2)n1; 0.63
FC(F)(F)c1cccc(-c2nn3ncccc3c2-c2ccnc(Nc3ccc4c(c3)OCCO4)n2)c1; 0.9
COc1cc2c(cc1Nc1nc(Nc3ccsc3C(N)=O)c3cc[nH]c3n1)N(C(=O)CN(C)C)CCC2(C)C; -6.01
COc1cccc(-c2c[nH]c3c(N/N=C/c4ccncc4)ncnc23)c1; -4.09
COc1ccc(-c2oc3ncnc(N)c3c2-c2ccc(NC(=O)Nc3cc(C(F)(F)F)ccc3F)cc2)cc1; -0.9
CC(=O)Nc1cccc(C#Cc2cncnc2Nc2ccc(OCc3cccc(F)c3)c(Cl)c2)c1; 3.21

inhibition measured on `CNC(=O)c1cc(-c2ccc(F)cc2)cc(-c2ccc(S(=O)(=O)N3CCCC3)cc2)c1N` = -0.29

Form: compound = `Cc1ccc2c(-c3ccnc(Nc4ccccc4)n3)c(-c3ccc(F)cc3)nn2n1` ; inhibition = -2.66

Entry under test: `COC(=O)Nc1nc2ccc(Oc3ccc(NC(=O)Nc4cccc(Cl)c4)cc3)cc2[nH]1` . Its inhibition was 0.41

// field: inhibition; key: `CCn1cc(-c2ccnc3[nH]ccc23)c(-c2cccc(NC(=O)Nc3ccc(OCc4ccccc4)cc3)c2)n1` ; value = -1.9

compound `Nc1ncc(-c2cccc(S(N)(=O)=O)c2)c2scc(-c3ccc(F)c(Cl)c3)c12` , inhibition observed: 0.28

For reference, reported inhibition for `NS(=O)(=O)c1ccc(Nc2ncc(-c3ccccc3)o2)cc1` stands at 3.95
